From: patent US9315545B2

assay: Compound blood levels after subcutaneous administration in the rat (LC/MS); assay type: in vivo; details: sc, subcutaneous, 7.5 mg/kg, blood, dosed compound itself, read-out: AUC(0-24) (hr*ng/mL, mean ± SD)

compound	AUC(0-t) / ng·h/mL
CCCCCCCCCCCCCCCCNC(=O)CN(CC(N)=O)C(=O)CCCCCNC(=O)C(Cc1c[nH]c2ccccc12)NC(=O)C(CCCNC(=N)N)NC(=O)C(CS)NC(=O)C(CCCNC(=N)N)NC(=O)CC1CCCN1C(=O)C(NC(=O)C(Cc1c[nH]cn1)NC(=O)C(NC(=O)CNCC(=O)O)C(C)O)C(c1ccccc1)c1ccccc1 (stereo not shown) [Compound 1, reference compound]	2750

====

test: Stability in sodium acetate buffer pH 6 at two temperatures, reversed-phase HPLC; format: physicochemical; details: sodium acetate buffer pH 6, 6 hours, 40° C.

molecule	result-units	% Purity of the Compound, 6 Hours 40° C.
CCCCCCCCCCCCCCCCNC(=O)CN(CC(N)=O)C(=O)CCCCCNC(=O)C(Cc1c[nH]c2ccccc12)NC(=O)C(CCCNC(=N)N)NC(=O)C(CSCC)NC(=O)C(CCCNC(=N)N)NC(=O)CC1CCCN1C(=O)C(NC(=O)C(Cc1c[nH]cn1)NC(=O)C(NC(=O)CNCC(=O)O)C(C)O)C(c1ccccc1)c1ccccc1 (stereo not shown)	%	96.6
CCCCCCCCCCCCCCCCNC(=O)CN(CC(N)=O)C(=O)CCCCCNC(=O)C(Cc1c[nH]c2ccccc12)NC(=O)C(CCCNC(=N)N)NC(=O)C(CSSC)NC(=O)C(CCCNC(=N)N)NC(=O)CC1CCCN1C(=O)C(NC(=O)C(Cc1c[nH]cn1)NC(=O)C(NC(=O)CNCC(=O)O)C(C)O)C(c1ccccc1)c1ccccc1 (stereo not shown)	%	99.4
CCCCCCCCCCCCCCCCNC(=O)CN(CC(N)=O)C(=O)CCCCCNC(=O)C(Cc1c[nH]c2ccccc12)NC(=O)C(CCCNC(=N)N)NC(=O)C(CS)NC(=O)C(CCCNC(=N)N)NC(=O)CC1CCCN1C(=O)C(NC(=O)C(Cc1c[nH]cn1)NC(=O)C(NC(=O)CNCC(=O)O)C(C)O)C(c1ccccc1)c1ccccc1 (stereo not shown) [Compound 1, reference compound]	%	11.9
CCCCCCCCCCCCCCCCNC(=O)CN(CC(N)=O)C(=O)CCCCCNC(=O)C(Cc1c[nH]c2ccccc12)NC(=O)C(CCCNC(=N)N)NC(=O)C(CSC(C)=O)NC(=O)C(CCCNC(=N)N)NC(=O)CC1CCCN1C(=O)C(NC(=O)C(Cc1c[nH]cn1)NC(=O)C(NC(=O)CNCC(=O)O)C(C)O)C(c1ccccc1)c1ccccc1 (stereo not shown)	%	84.9

====

experiment: physchem; type: physicochemical; conditions: pH 2.3, Solubility (mg/mL) at Ambient Temperature, 10% Tween 80 pH 2.3-2.8

compound	solubility
CCCCCCCCCCCCCCCCNC(=O)CN(CC(N)=O)C(=O)CCCCCNC(=O)[C@H](Cc1c[nH]c2ccccc12)NC(=O)[C@H](CCCNC(=N)N)NC(=O)[C@H](CSSC)NC(=O)[C@H](CCCNC(=N)N)NC(=O)C[C@@H]1CCCN1C(=O)[C@@H](NC(=O)[C@H](Cc1c[nH]cn1)NC(=O)[C@@H](NC(=O)CN(CC(=O)O)C(=O)CNC(C)=O)[C@@H](C)O)C(c1ccccc1)c1ccccc1 [Compound 9]	30 to 50 mg/mL
CCCCCCCCCCCCCCCCNC(=O)CN(CC(N)=O)C(=O)CCCCCNC(=O)C(Cc1c[nH]c2ccccc12)NC(=O)C(CCCNC(=N)N)NC(=O)C(CSSC)NC(=O)C(CCCNC(=N)N)NC(=O)C1CCCN(C(=O)C(NC(=O)C(Cc2c[nH]cn2)NC(=O)C(NC(=O)CNCC(=O)O)C(C)O)C(c2ccccc2)c2ccccc2)C1 (stereo not drawn) [Compound 5]	> 200 mg/mL
CCCCCCCCCCCCCCCCNC(=O)CN(CC(N)=O)C(=O)CCCCCNC(=O)[C@H](Cc1c[nH]c2ccccc12)NC(=O)[C@H](CCCNC(=N)N)NC(=O)[C@H](CSSC)NC(=O)[C@H](CCCNC(=N)N)NC(=O)[C@@H]1CCCN(C(=O)[C@@H](NC(=O)[C@H](Cc2c[nH]cn2)NC(=O)[C@@H](NC(=O)CNCC(=O)O)[C@@H](C)O)C(c2ccccc2)c2ccccc2)C1 [Compound 7]	> 100 mg/mL
